System: SERPINA7 (gene 6906)
Experiment: CCTE_GLTED_hTBG: CCTE's human Thyroxine-binding Globulin (TBG) Inhibition Assay, Great Lakes Toxicology and Ecology Division (GLTED) Lab (AID 2284343);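 also: active chemicals lower fluorescence versus DMSO baseline by displacing probe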
Activity calls are given as the source filed them. The calls were made as follows: active = hit-call score of the fitted dose curve at least 0.9, where 1 is the maximum; inconclusive = response in the unintended direction; inactive = score below 0.9.
Each entry below carries its reported AC50.

SMI	VALUE
CCCCCCCOC(=O)c1ccc(O)cc1	10.6 µM (active)
CCCCCCCCCCCCc1ccc(O)cc1	6.15 µM (active)

# input compound: O=C(OCCc1ccccc1)c1ccccc1 ; wanted: its AC50
22.6 µM (active)

Same question, CCCCNS(=O)(=O)c1ccc(C)cc1 this time
21.4 µM (active)

Same question, Oc1ccccc1Cc1ccccc1O this time
8.67 µM (active)

Same question, COc1cc(O)c(C(=O)c2ccccc2)cc1S(=O)(=O)O this time
29.8 µM (active)

Same question, Cc1ccc(C)c(OCCCC(C)(C)C(=O)O)c1 this time
27 µM (active)

---

Target: Transcription factor Sp1 (Homo sapiens) (UniProt P08047)
Sequence (P08047 whole entry, looked up): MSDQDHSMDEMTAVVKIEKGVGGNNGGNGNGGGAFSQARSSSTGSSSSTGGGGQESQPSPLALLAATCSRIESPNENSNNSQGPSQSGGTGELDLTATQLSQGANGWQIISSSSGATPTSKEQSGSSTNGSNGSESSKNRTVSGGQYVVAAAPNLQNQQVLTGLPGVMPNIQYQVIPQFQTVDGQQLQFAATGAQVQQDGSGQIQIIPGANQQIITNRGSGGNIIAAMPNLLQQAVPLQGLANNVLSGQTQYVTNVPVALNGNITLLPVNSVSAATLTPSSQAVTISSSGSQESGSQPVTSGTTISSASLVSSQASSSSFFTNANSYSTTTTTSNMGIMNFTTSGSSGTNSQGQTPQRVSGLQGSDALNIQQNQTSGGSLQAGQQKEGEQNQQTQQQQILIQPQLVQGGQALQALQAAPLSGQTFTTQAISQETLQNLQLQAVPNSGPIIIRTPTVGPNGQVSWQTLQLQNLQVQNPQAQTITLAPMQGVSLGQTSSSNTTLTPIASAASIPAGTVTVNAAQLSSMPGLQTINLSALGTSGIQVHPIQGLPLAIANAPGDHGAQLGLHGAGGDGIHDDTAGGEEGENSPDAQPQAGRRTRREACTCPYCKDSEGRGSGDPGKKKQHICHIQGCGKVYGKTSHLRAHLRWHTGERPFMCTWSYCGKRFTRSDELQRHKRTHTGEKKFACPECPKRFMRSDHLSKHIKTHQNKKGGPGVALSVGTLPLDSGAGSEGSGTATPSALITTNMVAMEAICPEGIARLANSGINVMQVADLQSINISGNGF
Assay: ATG_Sp1_CIS: Attagene CIS-FACTORIAL HepG2 Assay for human Specificity Protein 1 (Sp1) (AID 2282961)
Details: HepG2 Sp1 cis-reporter transcription, actives raise or lower the signal
Calls of active or inactive are those of the source. Rule for the calls: active = hit-call score of the fitted dose curve at least 0.9, where 1 is the maximum; inactive = score below 0.9.
Choose one outcome from this list and give only that: T for active, F for inactive

MOLECULE	CATEGORY LABEL
Nc1ccc(Cl)c(N)c1	F
CN(C)c1ccc2nc3ccc(=[N+](C)C)cc-3sc2c1	F
CC/C=C\C/C=C\C/C=C\CCCCCCCC(=O)OC	T
O=C1CCCCCCCCCCCN1	F
NNS(=O)(=O)c1ccc(Oc2ccc(S(=O)(=O)NN)cc2)cc1	F

Please let me know the test result on file for C=C(C)C1CC=C(C)CC1 (stereo not drawn) .
F

Same question, CCCCCC(=O)OCC this time
F

Same question, O=C(Cl)c1c(Cl)c(Cl)c(C(=O)Cl)c(Cl)c1Cl this time
F

Same question, CCCCCCC=O this time
F

Same question, CC(=O)OC1CCCCC1C(C)(C)C (stereo not drawn) this time
F

Same question, CO[Si](C)(C)OC this time
F

Same question, CCCSSCCC this time
F

Same question, CCC(C)C(=O)OC (stereo not drawn) this time
F

---

Read-out: Tumor necrosis factor (Homo sapiens) (UniProt P01375)
Sequence (P01375 whole entry, looked up): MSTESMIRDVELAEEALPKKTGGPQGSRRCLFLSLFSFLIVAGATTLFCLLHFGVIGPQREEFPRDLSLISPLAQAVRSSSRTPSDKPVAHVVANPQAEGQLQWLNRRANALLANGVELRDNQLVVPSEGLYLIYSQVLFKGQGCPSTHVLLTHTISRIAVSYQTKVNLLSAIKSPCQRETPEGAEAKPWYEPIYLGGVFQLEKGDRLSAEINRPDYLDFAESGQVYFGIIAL
Assay: BSK_BT_xTNFa: BioMAP Diversity Plus: BT Assay for Tumor necrosis factor alpha (TNF-alpha) Biomarker Activity (AID 2284230)
Details: primary human B cells with PBMC
Calls of active or inactive are those of the source. How the source made its calls: active means hit-call score of the fitted dose curve at least 0.9, where 1 is the maximum; inactive means score below 0.9.
Choose one outcome from this list and give only that: active, inactive

Record excerpt, results attached:
COMPOUND	CATEGORY LABEL
CC=C(C)C(C)=O	inactive
CC(Cl)COP(=O)(OCC(C)Cl)OCC(C)Cl (centres undefined)	inactive
CCCCCC1=CCCC1=O	inactive
C=CC(=O)OCCCCCCOC(=O)C=C	active
CCCCC1C(=O)N(c2ccccc2)N(c2ccccc2)C1=O	inactive
CCCCCCOC(=O)CCCCC(=O)OCCCCCC	inactive
O=C(Oc1ccccc1)c1ccccc1C(=O)Oc1ccccc1	inactive
C=CC(=O)NCOCCCC	inactive

Please let me know the test result on file for CCCCCCC=O .
inactive

---

Read-out: Tumor necrosis factor (Homo sapiens) (UniProt P01375)
Test: BSK_LPS_TNFa: BioMAP Diversity Plus: LPS Assay for Tumour Necrosis Factor alpha (TNFa) Biomarker Activity (AID 2283085)
Details: primary human HUVEC with PBMC; actives raise or lower the signal
Activity calls are given as the source filed them. How the source made its calls: active means hit-call score of the fitted dose curve at least 0.9, where 1 is the maximum; inactive means score below 0.9.
Choose one outcome from this list and give only that: active, inactive

Record excerpt, results attached:
MOLECULE	CATEGORY LABEL
CCCCCCCO	inactive
CC1(C)CC(O)CC(C)(C)N1[O]	inactive
C=CC(=O)OCCCCCCOC(=O)C=C	active
O=C1CCCCCCCCCCC1	inactive
c1ccc2c(c1)[nH]c1ccccc12	inactive

Please let me know the test result on file for Fc1ccc(Br)cc1 .
inactive

Same question, COC(OC)(C(=O)c1ccccc1)c1ccccc1 this time
inactive

Same question, CC=C(C)C=CC=C(C)C this time
inactive

Same question, C=CC(=O)OCC(C)OCC(C)OCC(C)OC(=O)C=C (stereo not given) this time
inactive

Same question, c1ccc2sc(SSN3CCOCC3)nc2c1 this time
inactive

---

Target: Estrogen receptor beta (Homo sapiens)
Assay: OT_ER_ERbERb_1440: Odyssey Thera (OT) 24-hour HEK293T Protein-Complementation Assay for Estrogen Receptor-beta/-beta Homodimer (AID 2283380);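 also: fluorescence gain from ER beta LBD homodimer complementation read by laser scanning cytometry; scored as signal increase over DMSO baseline for both agonists and antagonists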
Active and inactive are the calls of the source. The calls were made as follows: active = hit-call score of the fitted dose curve at least 0.9, where 1 is the maximum; inconclusive = response in the unintended direction; inactive = score below 0.9.
Choose one outcome from this list and give only that: True (active), False (inactive)

Record excerpt, results attached:
MOLECULE	CATEGORY LABEL
CCN1CN(CC)CN(CC)C1	False
c1ccc(Nc2cccc3ccccc23)cc1	True
O=C(Nc1ccccc1)c1cc(Cl)ccc1O	True

Please let me know the test result on file for Nc1ccc(C(=O)O)cc1 .
False

Same question, O=C(O)c1cc(O)c2ccccc2c1O this time
False

Same question, CCCCCCCCCCCCc1ccc(O)cc1 this time
True

Same question, CCCCCCCOC(=O)c1ccc(O)cc1 this time
True

Same question, CCCCC(=O)O this time
False

Same question, Cc1ccc(C)c(OCCCC(C)(C)C(=O)O)c1 this time
False

Same question, Cc1c(C(=O)c2c[nH]n(C)c2=O)ccc(S(C)(=O)=O)c1C1=NOCC1 this time
False

Same question, CC(C)c1cc(C(C)C)cc(C(C)C)c1 this time
False

Same question, CCCCCCCCCCCCCCCCCCOS(=O)(=O)O this time
True

Same question, CCCCC(CC)COS(=O)(=O)O (centres undefined) this time
False

Same question, N#Cc1ccc(C(c2ccc(C#N)cc2)n2cncn2)cc1 this time
False

---

Read-out: Plasminogen activator inhibitor-1 (PAI1), SERPINE1 (gene 5054)
Assay: BSK_BE3C_PAI1: BioMAP Diversity Plus: BE3C Assay for Plasminogen activator inhibitor-1 (PAI1) Biomarker Activity (AID 2283037)
Details: primary human bronchial epithelial cells; actives raise or lower the signal
Active and inactive are the calls of the source. How the source made its calls: active means hit-call score of the fitted dose curve at least 0.9, where 1 is the maximum; inactive means score below 0.9.
Choose one outcome from this list and give only that: active, inactive

Please let me know the test result on file for CCCCCC1=CCCC1=O .
inactive

Same question, CCCCCCCCC(CO)CCCCCC (stereo unspecified) this time
active

Same question, CC(Cl)COP(=O)(OCC(C)Cl)OCC(C)Cl (stereo unspecified) this time
inactive

Same question, C=CC(=O)NC(C)(C)C this time
inactive

Same question, CC(c1cc(C(C)(C)C)cc(C(C)(C)C)c1O)c1cc(C(C)(C)C)cc(C(C)(C)C)c1O this time
inactive

Same question, CC/C=C\C/C=C\C/C=C\CCCCCCCC(=O)OC this time
active

Same question, C[N+](C)(C)CCCNS(=O)(=O)C(F)(F)C(F)(F)C(F)(F)C(F)(F)C(F)(F)C(F)(F)C(F)(F)C(F)(F)F this time
inactive

Same question, CCCCCCC=O this time
inactive

Same question, CCOC(=O)/C=C\C(=O)OCC this time
inactive

Same question, CCC1(C)C(=O)N(Cl)C(=O)N1Cl (stereo unspecified) this time
inactive

Same question, Oc1ccc(/C=C/c2cc(O)cc(O)c2)cc1 this time
inactive

Same question, CCNc1nc(NC(C)(C)C)nc(OC)n1 this time
inactive

Same question, C=C(C)C(=O)OCCCCCCCCCCCC this time
inactive

Same question, CC(CCC(=O)O)(c1ccc(O)cc1)c1ccc(O)cc1 this time
inactive

Same question, c1ccc2c(c1)[nH]c1ccccc12 this time
inactive

Same question, Cc1ccc([N+](=O)[O-])cc1N this time
inactive

Same question, CC(C)[N+](C)(CCOC(=O)C1c2ccccc2Oc2ccccc21)C(C)C this time
inactive

---

Biological target: Signal transducer and activator of transcription 3 (Homo sapiens) (UniProt P40763)
Sequence (P40763 whole entry, looked up): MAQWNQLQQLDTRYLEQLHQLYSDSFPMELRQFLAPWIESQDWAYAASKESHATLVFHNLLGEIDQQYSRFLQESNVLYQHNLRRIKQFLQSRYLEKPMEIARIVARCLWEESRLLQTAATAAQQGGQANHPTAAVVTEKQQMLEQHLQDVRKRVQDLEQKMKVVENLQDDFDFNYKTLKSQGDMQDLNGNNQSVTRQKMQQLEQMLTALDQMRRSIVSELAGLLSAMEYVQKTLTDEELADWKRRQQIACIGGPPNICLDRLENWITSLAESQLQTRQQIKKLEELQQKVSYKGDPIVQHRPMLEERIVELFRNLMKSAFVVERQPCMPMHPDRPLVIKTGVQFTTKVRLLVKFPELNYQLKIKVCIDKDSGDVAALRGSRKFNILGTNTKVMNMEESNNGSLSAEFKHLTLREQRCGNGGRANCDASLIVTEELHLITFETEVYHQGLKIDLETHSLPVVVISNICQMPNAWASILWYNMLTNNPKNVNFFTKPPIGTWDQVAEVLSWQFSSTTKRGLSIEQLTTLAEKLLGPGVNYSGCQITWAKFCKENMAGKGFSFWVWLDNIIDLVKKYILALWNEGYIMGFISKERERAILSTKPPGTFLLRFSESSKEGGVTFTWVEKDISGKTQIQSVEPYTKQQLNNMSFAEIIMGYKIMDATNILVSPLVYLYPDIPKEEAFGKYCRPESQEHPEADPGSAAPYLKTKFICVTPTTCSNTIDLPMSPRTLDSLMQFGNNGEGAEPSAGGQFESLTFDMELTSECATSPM
Test: ATG_STAT3_CIS: Attagene CIS-FACTORIAL HepG2 Assay for human Signal Transducer and Activator of Transcription 3 (STAT3) (AID 2282963)
Conditions: HepG2, Attagene cis-factorial STAT3 reporter transcription; actives raise or lower the signal
Protocol: ATG_CIS is a cell-based, multiplexed-readout assay that uses HepG2, a human liver cell line, with measurements taken at 24 hours after chemical dosing in a 24-well plate.ATG_STAT3_CIS is one of 52 assay component(s) measured or calculated from the ATG_CIS assay. […] This assay endpoint, ATG_STAT3_CIS, was analyzed with bidirectional fitting relative to DMSO as the negative control and baseline of activity. […]
Activity calls are given as the source filed them. Rule for the calls: active = hit-call score of the fitted dose curve at least 0.9, where 1 is the maximum; inactive = score below 0.9.
OUTCOME MEASURE: outcome

COMPOUND	outcome
CCOC(=O)CC(=O)c1ccccc1	inactive
O=C(O)c1ccc2c(c1)C(=O)OC2=O	inactive
CCCCCCCC(=O)OCC(COC(=O)CCCCCCC)OC(=O)CCCCCCC	inactive
CC1(C)[C@@H]2CC[C@@]1(C)C(=O)C2	inactive
CCc1cccc(C)c1N	inactive
N#Cc1ccc(C2CCCc3cncn32)cc1 (stereo not given)	inactive
C=CC(=O)NC(C)(C)C	inactive
CCCCCC[C@@H](O)C/C=C\CCCCCCCC(=O)OCC(O)CO (stereo not given in full)	inactive

# input compound: Cc1cc(=O)[nH]c(=O)[nH]1 ; wanted: its outcome
inactive

Same question, CCCCC(CC)COC(=O)/C=C/c1ccc(OC)cc1 (stereo not given) this time
inactive

Same question, C=C[C@@]1(C)CC(=O)[C@]2(O)[C@@]3(C)[C@@H](O)CCC(C)(C)[C@@H]3[C@H](O)[C@H](OC(C)=O)[C@@]2(C)O1 this time
inactive

Same question, O=C(O)c1cc(O)c2ccccc2c1O this time
inactive
